test system: [Candida] aaseri; assay: Fungicidal activity against Candida aaseri MTCC 1962 incubated for 24 hrs followed by transfer of microbial suspension to Sabouraud dextrose agar plates and measured after 24 hrs post transfer; type: functional; details: Yamadazyma aaseri, MTCC 1962, 24 h
property-label: MFC (µg/mL)

{"columns": ["structure-notation", "property-label", "unit-text", "observed-measurement"],
 "data": [
  ["O=C(c1nc(-c2ccccc2)c2c(C(F)(F)F)cc(-c3ccccc3)nc2n1)N1CCCC1", "MFC", "µg/mL", 15.6],
  ["O=C(NCc1ccccc1)c1nc(-c2ccccc2)c2c(C(F)(F)F)cc(-c3ccccc3)nc2n1", "MFC", "µg/mL", 62.5],
  ["COc1ccc(-c2nc(C(=O)N3CCN(C)CC3)nc3nc(-c4ccccc4)cc(C(F)(F)F)c23)cc1", "MFC", "µg/mL", 31.2]
]}

Hello, the source for this data is ChEMBL document CHEMBL4219190, in case you need it.
